test system: NOMO1; test: cell viability relative to DMSO control; higher = less cytotoxic; conditions: HPLM + 10% dialyzed FBS; 48 h; 46.1 µM
property.name: cell viability (%)
State just the number; it will be interpreted in %.

Recorded results for 3 molecules are shown here.
| molecule | cell viability, % |
| --- | --- |
| Cc1cc(SCc2sc(-c3ccc(C(F)(F)F)c(F)c3)nc2C)ccc1OCC(=O)O | 92.9 |
| N=C(N)c1ccc(OCCCCCOc2ccc(C(=N)N)cc2)cc1 | 46.6 |
| CCOC(=O)c1ncn2c1CN(C)C(=O)c1cc(F)ccc1-2 | 73.6 |

Turning now to a further molecule:
What reported cell viability corresponds to `CC(C)[C@@H](N(CCCN)C(=O)C1=CC=C(C)C=C1)C/2=C(\CC3=CC=CC=C3)C(=O)C4=C(O2)C=C(Cl)C=C4` on NOMO1?
4.73

###

tested on: SEM cells; test: cell viability relative to DMSO control; higher = less cytotoxic; conditions: HPLM + 10% dialyzed FBS; 48 h; 1.71 µM
property.name: cell viability (%)
State just the number; it will be interpreted in %.

Recorded results for 2 molecules are shown here.
| molecule | study.system | recorded.value |
| --- | --- | --- |
| Cn1c(=O)c2c(ncn2CC(O)CO)n(C)c1=O (stereo not drawn) | SEM cells | 111 |
| CNC(=O)c1cc(Oc2ccc(NC(=O)Nc3cc(C(C)(C)C)nn3-c3ccc4ncccc4c3)c(F)c2)ccn1 | SEM cells | 66.6 |

Turning now to a further molecule:
Using the record for `COc1ccc([C@@H]2CNC(=O)C2)cc1OC1CCCC1` , report its cell viability.
114

###

test system: P12-Ichikawa; test: AUC of viability dose-response curve (% viability x log10 dose units); higher = less sensitive; conditions: RPMI 5 mM glucose + 10% FBS; 48 h
property.name: AUC of viability dose-response curve
Please reply with the number alone, leaving off any unit.

Using the record for `CCN(CC)CCOC1=CC=C(NC2=NC=C3\C=C(/C(=O)N(C)C3=N2)C4=C(Cl)C=CC=C4Cl)C=C1` , report its AUC of viability dose-response curve.
365

Using the record for `Cl.Cl.Fc1ccc(C(OCCN2CCN(CCCc3ccccc3)CC2)c2ccc(F)cc2)cc1` , report its AUC of viability dose-response curve.
467

Using the record for `CN(C)CCC=C1C2=C(C=CC=C2)\C=C/C3=C1C=CC=C3` , report its AUC of viability dose-response curve.
401

Using the record for `CC1(C)O[C@H]2CC(=O)OC[C@]23[C@H]2CC[C@@]4(C)[C@H](c5ccoc5)OC(=O)[C@H]5O[C@]54[C@]2(C)C(=O)C[C@@H]13` , report its AUC of viability dose-response curve.
446

Using the record for `CCCn1c(=O)c2[nH]c(C34CC5CC3C[C@@H](C5)C4)nc2n(CCC)c1=O` , report its AUC of viability dose-response curve.
410

Using the record for `NC12CC3CC(CC(C3)C1)C2` , report its AUC of viability dose-response curve.
466

Using the record for `CNC(=O)c1cc(Oc2ccc(NC(=O)Nc3cc(C(C)(C)C)nn3-c3ccc4ncccc4c3)c(F)c2)ccn1` , report its AUC of viability dose-response curve.
465

Using the record for `COC1=CC=C(C=C1)C/2=C/OC3=CC(=CC=C3C2=O)O` , report its AUC of viability dose-response curve.
461

Using the record for `Nc1cccc(-c2cc3c(Oc4cccc(O)c4)ncnc3[nH]2)c1` , report its AUC of viability dose-response curve.
431
